Listed next: entries and their corresponding pKd.
# target-system: T1, human BMP-11 (GDF-11; R&D Systems) (human, UniProt O95390 299-407)
# T1 sequence (looked up): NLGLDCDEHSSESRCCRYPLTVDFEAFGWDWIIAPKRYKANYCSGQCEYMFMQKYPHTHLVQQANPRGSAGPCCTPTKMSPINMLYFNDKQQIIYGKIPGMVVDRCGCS
# method-notes: SPR format A, 25C
Worth noting: pKd values are minus log10 of concentrations stated in mol/L.

binder: ATI-1266 [40K 2-branch PEG] (designed binder, 40K 2-branch PEG on the Cys of the EGSGC tail, cysteine mutant of 2525_D02) MGVSDVPRDLEVVAATPTSLLISWTLPHAGRAHYYRITYGETGGNSPVQEFTVPGRGVTATISGLKPGVDYTITVYAVTVTTTSVILYKPISINYRTEGSGCHHHHHH
pKd: 8.59

*Q* Let me know recorded pKd for 1979_B06 (designed binder, monoAdnectin with His6 tag; also called ATI-1133) MGVSDVPRDLEVVAATPTSLLISWSLPHAGHVNYYRITYGETGGNSPVQEFTVPGRGVTATISGLKPGVDYTITVYAVTLTKSQMIHYMPISINYRTEIDKPSQHHHHHH , thanks.
*A* 6.31

*Q* Respond only with pKd recorded for ATI-1359 [40K 2-branch PEG] (designed binder, 40K 2-branch PEG on the Cys of the EGSGC tail) MGVSDVPRDLEVVAATPTSLLISWTLPHAGRAHYYRITYGETGGNSPVQEFTVPGRGVTATISGLKPGVDYTITVYAVTVTTTKVIHYKPISINYRTEGSGC
*A* 7.45

src = patent US20170088602A1
